B1: HDV Ribozyme (parent)
chain: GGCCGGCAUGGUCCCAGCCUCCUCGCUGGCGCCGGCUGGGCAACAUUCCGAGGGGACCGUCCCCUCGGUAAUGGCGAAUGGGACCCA

# Variants of: B1
# TEST NAME: self-cleavage, relative activity (ratio to wild type); higher = more cleavage; co-transcriptional
Classify as follows. Reported self-cleavage greater than or equal to 0.2: 1.0. Reported self-cleavage below: 0.0.

Here's what some known entries look like.
{"VARIANT DESIGNATION": "G6U G39C", "CATEGORY LABEL": 0.0}
{"VARIANT DESIGNATION": "C24A A77G", "CATEGORY LABEL": 1.0}
{"VARIANT DESIGNATION": "U9G A83U", "CATEGORY LABEL": 1.0}
{"VARIANT DESIGNATION": "U9C C19U", "CATEGORY LABEL": 1.0}
{"VARIANT DESIGNATION": "U23C C64A", "CATEGORY LABEL": 1.0}
{"VARIANT DESIGNATION": "C30U G39C", "CATEGORY LABEL": 0.0}
{"VARIANT DESIGNATION": "U60A C84A", "CATEGORY LABEL": 1.0}
{"VARIANT DESIGNATION": "C30U U60C", "CATEGORY LABEL": 1.0}
{"VARIANT DESIGNATION": "C62U A77U", "CATEGORY LABEL": 1.0}
{"VARIANT DESIGNATION": "G11A G59U", "CATEGORY LABEL": 1.0}

Item G31U C84G with self-cleavage of 0.2 or above? 0.0

For this variant, is measured self-cleavage 0.2 or higher? G2U C41G 0.0

Determine whether this variant has self-cleavage no lower than 0.2: G67U C84G 1.0

Could you verify whether the entry G11A C58G shows self-cleavage of no less than 0.2? 1.0
